Target: T1, Monocarboxylate transporter 8 peptide on HLA-A*02:01 (human)
T1 peptide: AVAFIGLHTS
Assay: cytokine release
attribute-measured: binding result

| binder | result |
| --- | --- |
| SIG35α / TRBV27 Cl.794 (TCR) alpha TRAV12-2 J35 CDR3: CAVSIGFGNVL beta TRBV27 TRBJ1-2 CDR3: CASSLLGDYGYTF | no recognition |
| SIG35α / TRBV27 Cl.788 (TCR) alpha TRAV12-2 J35 CDR3: CAVSIGFGNVL beta TRBV27 TRBJ2-7 CDR3: CASGPSYEQYF | no recognition |
| SIG35α / TRBV27 Cl.1086 (TCR) alpha TRAV12-2 J35 CDR3: CAVSIGFGNVL beta TRBV27 TRBJ1-2 CDR3: CASSLHGPGGYTF | no recognition |
